Here the recorded absorption maximum is given for each entry.
Test Description: solvent given as SMILES
Assay Conditions: in ClCCl

{"columns": ["Structure As Smiles", "absorption maximum, nm"],
 "data": [
  ["Cc1ccc(C(=O)c2c(C)c3ccc4cccc5c6cccc7ccc2c(c76)c3c45)cc1", 391],
  ["[O-][n+]1c(/C=C/c2cccs2)nc(N2CCOCC2)c2c1CCCC2", 400],
  ["CN(C)c1ccc(/C=C/c2cnc(C#Cc3ccc(C#N)cc3)o2)cc1", 390],
  ["COC(=O)c1cc(=O)n(C)c2cc(-c3cccc(N(C)C)c3)sc12", 396],
  ["CCCCCCN1C(=O)c2cccc3c(-c4ccc(-c5cc(-c6ccc(Cl)cc6)nn5-c5ccccc5)s4)ccc(c23)C1=O", 389],
  ["Fc1ccc(-c2c3ccccc3nc3cc4ccccc4cc23)cc1", 400]
]}

* * *

# absorption maximum listing for each entry below
Test Description: solvent given as SMILES
Assay Conditions: in CC(C)=O

{"columns": ["Compound", "absorption maximum, nm"],
 "data": [
  ["COc1cnc(-c2cc[n+](C3=C(F)C(F)(F)C(F)(F)[C-]3F)cc2)s1", 408],
  ["Cn1c(=O)c(/N=N/c2cc(S(=O)(=O)O)ccc2C(=O)O)c(O)c2ccccc21", 407],
  ["CN(C)c1ccc(/C=C/C=C/c2nc3ccccc3o2)cc1", 409],
  ["c1ccc(C2CCN3COc4c5ccccc5c5c6c7c(c2c3c46)C(c2ccccc2)CCN7CO5)cc1 (centres undefined)", 406]
]}

* * *

Below, each of the molecules is paired with its reported absorption maximum value.
Test Description: solvent given as SMILES
Assay Conditions: in ClC(Cl)Cl

{"columns": ["Structure As Smiles", "Unit Symbol", "absorption maximum"],
 "data": [
  ["C(#Cc1ccccc1)C(C#Cc1ccccc1)=Cc1ccc(-c2ccc(C=C(C#Cc3ccccc3)C#Cc3ccccc3)cc2)cc1", "nm", 394],
  ["COc1ccc(N(c2ccc(OC)cc2)c2sc(-c3ccc(Cl)cc3)nc2-c2ccccc2)cc1", "nm", 393],
  ["C(#Cc1cccs1)C(C#Cc1cccs1)=Cc1ccc(C=C(C#Cc2cccs2)C#Cc2cccs2)s1", "nm", 486],
  ["O=C1/C(=C\\c2ccc(N(c3ccccc3)c3ccccc3)cc2)S(=O)(=O)c2ccccc21", "nm", 491],
  ["CC1=CC(C)=[N+]2C1=C(c1ccc(I)cc1)c1c(C)cc(C)n1[B-]2(OC(C)C)OC(C)C", "nm", 504]
]}

* * *

Recorded absorption maximum by entry
Test Description: solvent given as SMILES
Assay Conditions: in CS(C)=O

{"columns": ["Structure As Smiles", "absorption maximum"],
 "data": [
  ["Cc1cc(C#Cc2ccccc2)c2ccc3c(C#Cc4ccccc4)cc(C#Cc4ccccc4)c4ccc1c2c43", "451 nm"],
  ["CN(c1ccccc1)c1ccc(/C=C2\\C(=O)c3ccccc3S2(=O)=O)cc1", "483 nm"],
  ["CCCCN1/C(=C/C=C/C2=[N+](C)c3ccccc3C2(C)C)C(C)(C)c2cc(Br)ccc21", "556 nm"],
  ["CCCCCCCCC1(CCCCCCCC)c2cc(C#CC#Cc3ccc(N(c4ccccc4)c4ccccc4)cc3)ccc2-c2ccc(C=O)cc21", "382 nm"],
  ["C[N+]1=C(/C=C/C=C2/N(CCCS(=O)(=O)[O-])c3ccccc3C2(C)C)C(C)(C)c2ccccc21", "553 nm"],
  ["Nc1cccc2cccc(N)c12", "354 nm"]
]}
